read-out: Plasminogen activator inhibitor-1 (PAI1), SERPINE1 (gene 5054); experiment: BSK_hDFCGF_PAI1: BioMAP Diversity Plus: hDFCGF Assay for Plasminogen activator inhibitor-1 (PAI1) Biomarker Activity (AID 2283066); conditions: primary human foreskin fibroblasts; actives raise or lower the signal
Calls of active or inactive are those of the source. The calls were made as follows: active = hit-call score of the fitted dose curve at least 0.9, where 1 is the maximum; inactive = score below 0.9.
Select the matching outcome among yes (1) for active, no (0) for inactive

| COMPOUND | LABEL VALUE |
| --- | --- |
| CCOP(=S)(OCC)Oc1ccc(S(C)=O)cc1 (stereo unspecified) | no (0) |
| CCSC(C)CC1CC(=O)C(C(CC)=NOC/C=C/Cl)=C(O)C1 (stereo unspecified) | no (0) |
| O=[N+]([O-])c1ccc(O)c([N+](=O)[O-])c1 | no (0) |
| CC(C)c1ccc(CO)cc1 | no (0) |
| BrCCBr | no (0) |
| O=C(O)C(F)(F)C(F)(F)C(F)(F)C(F)(F)C(F)(F)C(F)(F)F | no (0) |
| COC(=O)Cc1ccccc1 | no (0) |
| CC(C)(OO)c1ccccc1 | yes (1) |
| CCOP(=S)(OCC)SCSP(=S)(OCC)OCC | no (0) |
| CCCCCCCCC(=O)NCc1ccc(O)c(OC)c1 | yes (1) |

Moving on to another compound below.
Can you look up the reported call for "O=Cc1cccc(Oc2ccccc2)c1" for me?
no (0)

* * *

test: APR_HepG2_P-H2AX_24hr: Apredica 24-hour HepG2 Assay for H2AX Phosphorylation (AID 2282920); details: high-content imaging, actives raise or lower the signal
Activity calls are given as the source filed them. How the source made its calls: active means hit-call score of the fitted dose curve at least 0.9, where 1 is the maximum; inactive means score below 0.9.
OBSERVABLE: AC50

Previously resolved entries follow.
| COMPOUND | AC50 |
| --- | --- |
| CC12CC1(C)C(=O)N(c1cc(Cl)cc(Cl)c1)C2=O (stereo not given) | inactive |
| CCCCCCCCc1ccc(O)cc1 | inactive |
| CCN1CCC2(CC1)COc1cc3c(cc12)N(C(=O)c1ccc(-c2ccc(-c4nnc(C)o4)cc2C)cc1)CC3 | 28.9 µM (active) |
| CCC(=O)C(CC(C)N(C)C)(c1ccccc1)c1ccccc1 (stereo not given) | inactive |

We next turn to a different compound, shown below.
Give AC50 for ClC1(Cl)C2(Cl)C3(Cl)C4(Cl)C(Cl)(Cl)C5(Cl)C3(Cl)C1(Cl)C5(Cl)C24Cl (stereo not given)
inactive

* * *

assay: CCTE_Deisenroth_5AR_NBTE_donor: CCTE's 5alpha-reductase NanoBRET Target Engagement Assay […], Deisenroth Lab (AID 2284319); conditions: actives raise or lower the signal
The source made the active and inactive calls. Rule for the calls: active = hit-call score of the fitted dose curve at least 0.9, where 1 is the maximum; inactive = score below 0.9.
Select the matching outcome among active, inactive

| COMPOUND | LABEL VALUE |
| --- | --- |
| CC(C)(c1ccc(OCC2CO2)cc1)c1ccc(OCC2CO2)cc1 (stereo unspecified) | inactive |
| CCOP(=S)(OCC)Oc1nc(Cl)c(Cl)cc1Cl | inactive |
| N#CN=C(N)N | inactive |
| C[C@H]1CCCC(=O)CCC/C=C/c2cc(O)cc(O)c2C(=O)O1 | inactive |
| c1cc[c]([Hg][c]2ccccc2)cc1 | inactive |
| O=C(OC1CCCCC1)c1ccccc1C(=O)OC1CCCCC1 | inactive |

Moving on to another compound below.
Can you look up the reported call for "CC(=O)[O][Hg][c]1ccccc1" for me?
active

* * *

assay: ATG_DR4_LXR_CIS: Attagene CIS-FACTORIAL HepG2 Assay for human Liver X Receptor (LXR), DR4 submotif (AID 2282929); settings: HepG2 Attagene DR4 cis-reporter, mRNA transcription; actives raise or lower the signal
Activity calls are given as the source filed them. How the source made its calls: active means hit-call score of the fitted dose curve at least 0.9, where 1 is the maximum; inactive means score below 0.9.
Select the matching outcome among yes (active), no (inactive)

Some solved cases for reference:
| MOLECULE | LABEL VALUE |
| --- | --- |
| COP(=S)(OC)Oc1cc(Cl)c(Cl)cc1Cl | no |
| CC(C)C1CCC(Cc2ccc(Cl)cc2)C1(O)Cn1cncn1 (stereo unspecified) | yes |
| CCN(CC)C(=O)Cl | no |

Can you look up the reported call for "[O-][Cl+2]([O-])O" for me?
no

Can you look up the reported call for "O=C(O)C(Cl)(Cl)Cl" for me?
no

Can you look up the reported call for "Cl/C=C/Cl" for me?
no

* * *

Biological target: bovine Estrogen Receptor (ER), ESR1 (gene 407238) (UniProt P49884)
Sequence (P49884 whole entry, looked up): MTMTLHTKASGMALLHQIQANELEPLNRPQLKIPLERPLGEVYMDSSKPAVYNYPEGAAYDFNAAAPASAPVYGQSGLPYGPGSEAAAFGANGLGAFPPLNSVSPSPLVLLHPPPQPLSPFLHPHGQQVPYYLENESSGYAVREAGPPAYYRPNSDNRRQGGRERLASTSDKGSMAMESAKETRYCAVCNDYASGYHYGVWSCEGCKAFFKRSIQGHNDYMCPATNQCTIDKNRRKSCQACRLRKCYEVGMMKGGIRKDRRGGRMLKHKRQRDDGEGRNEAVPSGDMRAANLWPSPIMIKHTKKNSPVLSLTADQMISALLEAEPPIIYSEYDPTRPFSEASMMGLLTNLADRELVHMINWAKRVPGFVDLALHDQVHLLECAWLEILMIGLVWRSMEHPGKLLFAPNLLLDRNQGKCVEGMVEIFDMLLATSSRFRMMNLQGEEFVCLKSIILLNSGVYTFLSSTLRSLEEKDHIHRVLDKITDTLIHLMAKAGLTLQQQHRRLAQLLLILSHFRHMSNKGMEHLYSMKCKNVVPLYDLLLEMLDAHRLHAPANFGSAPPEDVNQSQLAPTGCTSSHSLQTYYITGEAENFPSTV
Assay: NVS_NR_bER: NovaScreen (NVS) Nuclear Receptor Binding Assay for bovine Estrogen Receptor (ER) (AID 2283345);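 also: actives lower the bound radioligand count which means they displace the ER ligand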
Experimental: NVS_NR_bER is a biochemical, single-readout assay that uses extracted gene-proteins from Bovine uterine membranes in a tissue-based cell-free assay. Measurements were taken 18 hours after chemical dosing in a 96-well plate.NVS_NR_bER is one of one assay component(s) measured or calculated from the NVS_NR_bER assay. […] This assay endpoint, NVS_NR_bER, was analyzed in the positive analysis fitting direction relative to DMSO as the negative control and baseline of activity. […]
Results filed as inconclusive are left out. Active and inactive are the calls of the source. How the source made its calls: active means hit-call score of the fitted dose curve at least 0.9, where 1 is the maximum; inconclusive means response in the unintended direction; inactive means score below 0.9.
Select the matching outcome among true = active, false = inactive

| SMILES DATA | ASSAY TARGET | LABEL VALUE |
| --- | --- | --- |
| COP(=O)(OC)O/C(=C\Cl)c1cc(Cl)c(Cl)cc1Cl | bovine Estrogen Receptor (ER), ESR1 (gene 407238) (UniProt P49884) | false |

Can you look up the reported call for "C[C@H]1CCCC(=O)CCC/C=C/c2cc(O)cc(O)c2C(=O)O1" for me?
true

Can you look up the reported call for "C=CC(=O)OCCCCCC(C)C" for me?
false

Can you look up the reported call for "C=C(C)C(=O)[O][Sn]([CH2]CCC)([CH2]CCC)[CH2]CCC" for me?
false

Can you look up the reported call for "COP(=S)(OC)Oc1cc(Cl)c(Br)cc1Cl" for me?
false

Can you look up the reported call for "CCCCCCCCCCCCCCCC[n+]1ccccc1" for me?
false

Can you look up the reported call for "ClC1=C(Cl)[C@]2(Cl)[C@H]3[C@H]([C@H]4C=C[C@H]3C4)[C@@]1(Cl)C2(Cl)Cl" for me?
false

Can you look up the reported call for "O=[N+]([O-])c1c(Cl)c(Cl)cc(Cl)c1Cl" for me?
false

* * *

read-out: growth arrest and DNA damage 45 (GADD45G), GADD45G (gene 10912); test: LTEA_HepaRG_GADD45G: Life Technologies and Expression Analysis (LTEA) Assay for growth arrest and DNA damage 45 (GADD45G) using HepaRG (AID 2283499); conditions: mRNA level, 48 h; actives raise or lower the signal
Active and inactive are the calls of the source. Rule for the calls: active = hit-call score of the fitted dose curve at least 0.9, where 1 is the maximum; inactive = score below 0.9.
Select the matching outcome among active, inactive

Some solved cases for reference:
| MOLECULE | LABEL VALUE |
| --- | --- |
| CCOP(=S)(OCC)SCSP(=S)(OCC)OCC | active |
| C=C(C)C(=O)[O][Sn]([CH2]CCC)([CH2]CCC)[CH2]CCC | active |
| O=C1C2(Cl)C3(Cl)C4(Cl)C(Cl)(Cl)C5(Cl)C3(Cl)C1(Cl)C5(Cl)C24Cl (configuration not stated) | active |
| O=C(O)C(F)(F)C(F)(F)C(F)(F)C(F)(F)C(F)(F)C(F)(F)F | inactive |
| C[C@]12CCC(=O)C[C@@H]1CC[C@@H]1[C@@H]2CC[C@]2(C)[C@@H](O)CC[C@@H]12 | inactive |
| CC(C)(C)CC(C)(C)c1ccc(O)cc1 | inactive |
| O=C(Nc1ccc2[nH]ccc2c1)c1cc2cc(F)ccc2n1Cc1cccc(F)c1 | inactive |
| Oc1cccc2cccnc12 | inactive |

Can you look up the reported call for "O=c1[nH]c(=O)[nH]c(=O)[nH]1" for me?
inactive

Can you look up the reported call for "CC(C)(OO)c1ccccc1" for me?
inactive

Can you look up the reported call for "CN(C)N=O" for me?
inactive

Can you look up the reported call for ClC1(Cl)C2(Cl)C3(Cl)C4(Cl)C(Cl)(Cl)C5(Cl)C3(Cl)C1(Cl)C5(Cl)C24Cl (configuration not stated) for me?
inactive

* * *

test: ATG_CMV_CIS: Attagene CIS-FACTORIAL HepG2 Assay for human CMV (Internal Marker) (AID 2282928); details: HepG2 CMV promoter reporter, transcription factor profiling; actives raise or lower the signal;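 also: endpoint acts as a background internal control marker rather than a target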
Activity calls are given as the source filed them. Rule for the calls: active = hit-call score of the fitted dose curve at least 0.9, where 1 is the maximum; inactive = score below 0.9.
Select the matching outcome among active, inactive

Some solved cases for reference:
| COMPOUND | LABEL VALUE |
| --- | --- |
| CCOP(=O)(CN(CCO)CCO)OCC | inactive |
| CC1(C)CCC(Cc2ccc(Cl)cc2)C1(O)Cn1cncn1 (stereo not given) | inactive |
| O=C1C(Cl)=C(Cl)C(=O)c2ccccc21 | inactive |
| CCOP(=S)(OCC)SCCS(=O)(=O)CC | inactive |
| Oc1ccc(-c2ccccc2)cc1 | active |
| Cc1cc(=O)[nH]o1 | inactive |

Moving on to another compound below.
Can you look up the reported call for "CC(C)CCCCCCOC(=O)c1ccccc1C(=O)OCCCCCCC(C)C" for me?
inactive

Data provenance is PubChem BioAssay (EPA / NIEHS).
